# SUBJECT_OF_TEST: HIV-1 protease (Human immunodeficiency virus type 1 group M subtype B)
# EXPERIMENTAL_PROTOCOL: biochemical
# APPLIED_CONDITIONS: read-out: HIV-1 Protease % Inhib, dose 3.300 uM
ENDPOINT_NAME: inhibition at 3.3 µM (%)

CC(C)(C)OC(=O)NCCCC(=O)Nc1cccc(C(c2c(O)c3c(oc2=O)CCCCCC3)C2CC2)c1 (stereo not shown) ... 95.4
CCCCCCCCS(=O)(=O)Nc1cccc(C(c2c(O)c3c(oc2=O)CCCCCC3)C2CC2)c1 (stereo not shown) ... 104
CC(CO)C1CCCCCc2c1oc(=O)c(C(c1ccccc1)C1CC1)c2O (stereo not shown) ... 104
CC(C)C(c1cccc(NS(=O)(=O)c2ccc(C#N)cc2)c1)c1c(O)c2c(oc1=O)CCCCCC2 (stereo not shown) ... 108
CCCC1CCCCCc2c1oc(=O)c([C@@H](c1ccccc1)C1CC1)c2O (mixture of isomers) ... 95.3
CC(C)(C)OC(=O)NCCC(=O)Nc1cccc(C(c2c(O)c3c(oc2=O)CCCCCC3)C2CC2)c1 (stereo not shown) ... 97.9
O=c1oc2c(c(O)c1C(c1cccc(NS(=O)(=O)c3ccc(NS(=O)(=O)c4ccccc4)cc3)c1)C1CC1)CCCCCC2 (stereo not shown) ... 86.4
CCCC(c1cccc(NS(=O)(=O)c2cccc3cccnc23)c1)c1c(O)c2c(oc1=O)CCCCCC2 (stereo not shown) ... 109
CCCC1CCCCc2c1oc(=O)c(C(c1ccccc1)C1CC1)c2O (stereo not shown) ... 88.4
C=CS(=O)(=O)Nc1cccc(C(c2c(O)c3c(oc2=O)CCCCCC3)C2CC2)c1 (stereo not shown) ... 98.1
O=c1oc2c(c(O)c1C(c1cccc(NS(=O)(=O)c3cccc4nsnc34)c1)C1CC1)CCCCCC2 (stereo not shown) ... 96.5
O=c1oc2c(c(O)c1C(c1cccc(NS(=O)(=O)c3cccc(Cl)c3Cl)c1)C1CC1)CCCCCC2 (stereo not shown) ... 95
O=c1oc2c(c(O)c1C(c1cccc(NS(=O)(=O)c3ccc(Cl)s3)c1)C1CC1)CCCCCC2 (stereo not shown) ... 100
Cc1sc(C(c2c(O)c3c(oc2=O)CCCCCC3)C2CC2)cc1CO (stereo not shown) ... 115
CC(C)C(c1cccc(N)c1)c1c(O)c2c(oc1=O)CCCCCC2 (stereo not shown) ... 113
CS(=O)(=O)Nc1cccc(C(c2c(O)c3c(oc2=O)CCCCCC3)C2CC2)c1 (stereo not shown) ... 101
O=c1oc2c(c(O)c1C(c1cccc(NS(=O)(=O)c3cccc(N(CCO)CCO)c3)c1)C1CC1)CCCCCC2 (stereo not shown) [Example 355 (Second Title Compound)] ... 110
O=c1oc2c(c(O)c1C(c1cccc(NS(=O)(=O)c3cccc(Br)c3)c1)C1CC1)CCCCCC2 (stereo not shown) ... 122
CC(C)C(c1ccccc1)c1c(O)c2c(oc1=O)CCCCCC2 (stereo not shown) ... 91.1
CCC(O)C1CCCCCc2c1oc(=O)c(C(c1ccccc1)C1CC1)c2O (stereo not shown) ... 111
O=c1oc2c(c(O)c1C(c1cccc(NS(=O)(=O)c3ccc(NO)cc3)c1)C1CC1)CCCCCC2 (stereo not shown) [Example 348 (Second Title Compound)] ... 109
CS(=O)(=O)Nc1cccc(C(c2c(O)c3c(oc2=O)CCCCC3)C2CC2)c1 (stereo not shown) ... 78.7
Cc1cncc(S(=O)(=O)Nc2cccc(C(c3c(O)c4c(oc3=O)CCCCCC4)C3CC3)c2)c1 (stereo not shown) ... 95.2
CC(C)C(c1cccc(NS(=O)(=O)c2cccc3cccnc23)c1)c1c(O)c2c(oc1=O)CCCCCC2 (stereo not shown) ... 99.7
O=c1oc2c(c(O)c1C(c1cccc(NS(=O)(=O)Nc3ccccc3)c1)C1CC1)CCCCCC2 (stereo not shown) ... 109
O=c1oc2c(c(O)c1C(c1cccc(NS(=O)(=O)CCc3ccccc3)c1)C1CC1)CCCCCC2 (stereo not shown) ... 102
O=c1oc2c(c(O)c1C(c1cccc(NS(=O)(=O)c3cc(C(F)(F)F)cc(C(F)(F)F)c3)c1)C1CC1)CCCCCC2 (stereo not shown) ... 94
NC(=O)c1ccc(S(=O)(=O)Nc2cccc(C(c3c(O)c4c(oc3=O)CCCCCC4)C3CC3)c2)cc1 (stereo not shown) [Example 365A] ... 116
O=c1oc2c(c(O)c1C(c1cccc(NS(=O)(=O)c3cc(S(=O)(=O)c4ccccc4)cs3)c1)C1CC1)CCCCCC2 (stereo not shown) ... 97.5
O=c1oc2c(c(O)c1C(c1ccccc1)C1CC1)CCCCCC2CC1CCCCO1 (stereo not shown) ... 88.6
CCCC1CCCCCc2c1oc(=O)c(C(c1ccccc1)C1CC1)c2O (stereo not shown) ... 112
